- Test system: S. aureus ATCC 13709 Novobiocin and Rifampicin resistant variant
- Assay details: microbe, parasite or virus in culture
- Assay type: cell-based
- Condition context: Novobiocin and Rifampicin resistant variant
Attribute measured: Minimum inhibitory concentration, S. aureus ATCC 13709 variant

Below, 5 compounds whose answers are already recorded.
# input Lookup: Minimum inhibitory concentration, S. aureus ATCC 13709 variant / S. aureus ATCC 13709 Novobiocin and Rifampicin resistant variant / CCN(CC)CC.CCN(CC)CC.CO[C@H]1/C=C/O[C@@]2(C)Oc3c(C)c(O)c4c(=O)c(c5oc6cc(N7CCN(CC(C)C)CC7)cc(O)c6nc-5c4c3C2=O)NC(=O)/C(C)=C\C=C\[C@H](C)[C@H](OC(=O)CCC(=O)NCCC(=O)NC(P(=O)(O)O)P(=O)(O)O)[C@@H](C)[C@@H](O)[C@@H](C)[C@H](OC(C)=O)[C@@H]1C [Compound 78]
# output >128 µg/mL

# input Field: Minimum inhibitory concentration, S. aureus ATCC 13709 variant (S. aureus ATCC 13709 Novobiocin and Rifampicin resistant variant). Entry: CCN(CC)CC.CCN(CC)CC.CO[C@H]1/C=C/O[C@@]2(C)Oc3c(C)c(O)c4c(c3C2=O)C2=NC3(CCN(CC(C)C)CC3)NC2=C(NC(=O)/C(C)=C\C=C\[C@H](C)[C@H](OC(=O)CCC(=O)NCCCC(=O)NC(P(=O)(O)O)P(=O)(O)O)[C@@H](C)[C@@H](O)[C@@H](C)[C@H](OC(C)=O)[C@@H]1C)C4=O [Compound 45]
# output >128 µg/mL

# input Query for S. aureus ATCC 13709 Novobiocin and Rifampicin resistant variant: what Minimum inhibitory concentration, S. aureus ATCC 13709 variant does the record show for CO[C@H]1/C=C/O[C@@]2(C)Oc3c(C)c(O)c4c(=O)c(c5oc6cc(N7CCN(CCOC(=O)CCC(=O)NC(P(=O)(O)O)P(=O)(O)O)CC7)cc(O)c6nc-5c4c3C2=O)NC(=O)/C(C)=C\C=C\[C@H](C)[C@H](O)[C@@H](C)[C@@H](O)[C@@H](C)[C@H](OC(C)=O)[C@@H]1C.N.N [Compound 62] ?
# output >128 µg/mL

# input For the record CCN(CC)CC.CCN(CC)CC.CO[C@H]1/C=C/O[C@@]2(C)Oc3c(C)c(O)c4c(c3C2=O)C2=NC3(CCN(CC(C)C)CC3)N(C(=O)OCOC(=O)CCCC(P(=O)(O)O)P(=O)(O)O)C2=C(NC(=O)/C(C)=C\C=C\[C@H](C)[C@H](O)[C@@H](C)[C@@H](O)[C@@H](C)[C@H](OC(C)=O)[C@@H]1C)C4=O [Compound 50] , what value of Minimum inhibitory concentration, S. aureus ATCC 13709 variant is listed for S. aureus ATCC 13709 Novobiocin and Rifampicin resistant variant?
# output >128 µg/mL

# input Hello, I am looking for reported Minimum inhibitory concentration, S. aureus ATCC 13709 variant with S. aureus ATCC 13709 Novobiocin and Rifampicin resistant variant for CO[C@H]1/C=C/O[C@@]2(C)Oc3c(C)c(O)c4c(=O)c(c5oc6cc(N7CCN(CCC(=O)c8ccc(OCCCC(P(=O)(O)O)P(=O)(O)O)cc8)CC7)cc(O)c6nc-5c4c3C2=O)NC(=O)/C(C)=C\C=C\[C@H](C)[C@H](O)[C@@H](C)[C@@H](O)[C@@H](C)[C@H](OC(C)=O)[C@@H]1C [Compound 71] . Could you help?
# output 128 µg/mL

---
# input Recorded Minimum inhibitory concentration, S. aureus ATCC 13709 variant for CCN(CC)CC.CCN(CC)CC.CO[C@H]1/C=C/O[C@@]2(C)Oc3c(C)c(O)c4c(c3C2=O)C2=NC3(CCN(CC(C)C)CC3)NC2=C(NC(=O)/C(C)=C\C=C\[C@H](C)[C@H](OC(=O)CCCOC(=O)CCC(=O)NC(P(=O)(O)O)P(=O)(O)O)[C@@H](C)[C@@H](O)[C@@H](C)[C@H](OC(C)=O)[C@@H]1C)C4=O [Compound 54] with S. aureus ATCC 13709 Novobiocin and Rifampicin resistant variant, please?
# output >128 µg/mL

====

- Test system: S. aureus ATCC 13709
- Assay details: Antibacterial susceptibility (MIC), NCCLS broth microdilution
- Format: cell-based
Attribute measured: Minimum inhibitory concentration, S. aureus ATCC 13709 (µg/mL)
State just the number; it will be interpreted in µg/mL.

# input Lookup: Minimum inhibitory concentration, S. aureus ATCC 13709 / S. aureus ATCC 13709 / `CO[C@H]1/C=C/O[C@@]2(C)Oc3c(C)c(O)c4c(=O)c(c5oc6cc(N7CCN(CCC(=O)c8ccc(OCCCC(P(=O)(O)O)P(=O)(O)O)cc8)CC7)cc(O)c6nc-5c4c3C2=O)NC(=O)/C(C)=C\C=C\[C@H](C)[C@H](O)[C@@H](C)[C@@H](O)[C@@H](C)[C@H](OC(C)=O)[C@@H]1C`
# output 0.0019

---
# input Return Minimum inhibitory concentration, S. aureus ATCC 13709 measured with S. aureus ATCC 13709 given this compound: `CCN(CC)CC.CCN(CC)CC.CO[C@H]1/C=C/O[C@@]2(C)Oc3c(C)c(O)c4c(c3C2=O)C2=NC3(CCN(CC(C)C)CC3)NC2=C(NC(=O)/C(C)=C\C=C\[C@H](C)[C@H](OC(=O)CCCOC(=O)CCC(=O)NC(P(=O)(O)O)P(=O)(O)O)[C@@H](C)[C@@H](O)[C@@H](C)[C@H](OC(C)=O)[C@@H]1C)C4=O`
# output 64

# input Please provide the recorded Minimum inhibitory concentration, S. aureus ATCC 13709 for `CO[C@H]1/C=C/O[C@@]2(C)Oc3c(C)c(O)c4c(c3C2=O)C2=NC3(CCN(CC(C)C)CC3)NC2=C(NC(=O)/C(C)=C\C=C\[C@H](C)[C@H](OC(=O)CNC(=O)CC(P(=O)(O)O)P(=O)(O)O)[C@@H](C)[C@@H](O)[C@@H](C)[C@H](OC(C)=O)[C@@H]1C)C4=O` , tested on S. aureus ATCC 13709.
# output 16

# input Identify the measured Minimum inhibitory concentration, S. aureus ATCC 13709 of `CO[C@H]1/C=C/O[C@@]2(C)Oc3c(C)c(O)c4c(=O)c(c5oc6cc(N7CCN(CC(C)C)CC7)cc(O)c6nc-5c4c3C2=O)NC(=O)/C(C)=C\C=C\[C@H](C)[C@H](OC(=O)CCCOC(=O)CCC(=O)NC(P(=O)(O)O)P(=O)(O)O)[C@@H](C)[C@@H](O)[C@@H](C)[C@H](OC(C)=O)[C@@H]1C` for S. aureus ATCC 13709.
# output 0.001

====

- Assay details: Regeneration of drug from bone powder-bound prodrug
- Type: in vitro ADME
- Condition context: serum compared to PBS
Attribute measured: Impact of the medium on the rate of regeneration of parent drug (in words)

# input Query: Impact of the medium on the rate of regeneration of parent drug (in words); subject: `CO[C@H]1/C=C/O[C@@]2(C)Oc3c(C)c(O)c4c(=O)c(c5oc6cc(N7CCN(CCC(=O)c8ccc(OCCCC(P(=O)(O)O)P(=O)(O)O)cc8)CC7)cc(O)c6nc-5c4c3C2=O)NC(=O)/C(C)=C\C=C\[C@H](C)[C@H](O)[C@@H](C)[C@@H](O)[C@@H](C)[C@H](OC(C)=O)[C@@H]1C`
# output significant acceleration

# input Request the reported Impact of the medium on the rate of regeneration of parent drug (in words) associated with `CO[C@H]1/C=C/O[C@@]2(C)Oc3c(C)c(O)c4c(=O)c(c5oc6cc(N7CCN(CC(C)C)CC7)cc(O)c6nc-5c4c3C2=O)NC(=O)/C(C)=C\C=C\[C@H](C)[C@H](OC(=O)COC(=O)CCC(=O)NC(P(=O)(O)O)P(=O)(O)O)[C@@H](C)[C@@H](O)[C@@H](C)[C@H](OC(C)=O)[C@@H]1C`
# output significant acceleration

====

- System: S. aureus ATCC 13709
- Assay details: Antibacterial susceptibility (MIC), NCCLS broth microdilution
- Assay type: cell-based
- Condition context: summary over the strains of Table 1
Attribute measured: Antibacterial activity (in words, summary of Table 1)

# input What is its Antibacterial activity (in words, summary of Table 1) for S. aureus ATCC 13709? Entry: CO[C@H]1/C=C/O[C@@]2(C)Oc3c(C)c(O)c4c(=O)c(c5oc6cc(N7CCN(CCC(=O)c8ccc(OCCCC(P(=O)(O)O)P(=O)(O)O)cc8)CC7)cc(O)c6nc-5c4c3C2=O)NC(=O)/C(C)=C\C=C\[C@H](C)[C@H](O)[C@@H](C)[C@@H](O)[C@@H](C)[C@H](OC(C)=O)[C@@H]1C [Compound 71]
# output very low MICs

# input // map CO[C@H]1/C=C/O[C@@]2(C)Oc3c(C)c(O)c4c(=O)c(c5oc6cc(N7CCN(CCOC(=O)CCC(=O)NC(P(=O)(O)O)P(=O)(O)O)CC7)cc(O)c6nc-5c4c3C2=O)NC(=O)/C(C)=C\C=C\[C@H](C)[C@H](O)[C@@H](C)[C@@H](O)[C@@H](C)[C@H](OC(C)=O)[C@@H]1C.N.N [Compound 62] to recorded Antibacterial activity (in words, summary of Table 1) (system: S. aureus ATCC 13709)
# output very low MICs

# input Look up Antibacterial activity (in words, summary of Table 1) with S. aureus ATCC 13709 for this compound: CO[C@H]1/C=C/O[C@@]2(C)Oc3c(C)c(O)c4c(=O)c(c5oc6cc(N7CCN(CC(C)C)CC7)cc(O)c6nc-5c4c3C2=O)NC(=O)/C(C)=C\C=C\[C@H](C)[C@H](OC(=O)CCCOC(=O)CCC(=O)NC(P(=O)(O)O)P(=O)(O)O)[C@@H](C)[C@@H](O)[C@@H](C)[C@H](OC(C)=O)[C@@H]1C [Compound 81]
# output very low MICs
